From: PubChem BioAssay AID2060896

viability, T/C reference
System: 941728-121-R-J1-PDC complex spheroid viability
Assay Remarks: Anticancer human tumor 941728-121-R-J1-PDC patient-derived lung adenocarcinoma cell line growth inhibition [RAS]
Protocol Conditions: second compound 0.01 µM; first compound 0.00316 µM; stronger effect = lower value
Expressed in %, but write only the number.

These recorded examples may help you get a feel for the data.
1. CCN1CCN(Cc2ccc(Nc3ncc(F)c(-c4cc(F)c5nc(C)n(C(C)C)c5c4)n3)nc2)CC1 + C=CC(=O)N1CCN(c2nc(OCC3CCCN3C)nc3c(F)c(-c4nc(N)cc(C)c4C(F)(F)F)c(Cl)cc23)C(C)C1: 20.1
2. O=C(c1ccc(F)c(F)c1Nc1ccc(I)cc1F)N1CC(O)([C@@H]2CCCCN2)C1 + C=CC(=O)N1CCN(c2nc(OCC3CCCN3C)nc3c(F)c(-c4nc(N)cc(C)c4C(F)(F)F)c(Cl)cc23)C(C)C1: 18.9
3. Nc1ccn(C2OC(CO)C(O)C2(F)F)c(=O)n1 (stereo not given) + C=CC(=O)N1CCN(c2nc(OCC3CCCN3C)nc3c(F)c(-c4nc(N)cc(C)c4C(F)(F)F)c(Cl)cc23)C(C)C1: 17.7
4. CC(C)n1nc(-c2ccc3oc(N)nc3c2)c2c(N)ncnc21 + C=CC(=O)N1CCN(c2nc(OCC3CCCN3C)nc3c(F)c(-c4nc(N)cc(C)c4C(F)(F)F)c(Cl)cc23)C(C)C1: 17.9

Now examine the next entry.
Problem: Any idea what its viability, T/C is? The molecule is C=CC(=O)Nc1cc(Nc2nccc(-c3cn(C)c4ccccc34)n2)c(OC)cc1N(C)CCN(C)C + C=CC(=O)N1CCN(c2nc(OCC3CCCN3C)nc3c(F)c(-c4nc(N)cc(C)c4C(F)(F)F)c(Cl)cc23)C(C)C1
Result: 20.4

* * *

Test system: 941728-121-R-J1-PDC complex spheroid viability
Assay Remarks: Anticancer human tumor 941728-121-R-J1-PDC cell line growth inhibition [RAS];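 further: spheroids exposed to compounds for 7 days before readout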
Protocol Conditions: curve of first compound; second compound 0.003 µM
Text: RAS pathway inhibitors in Combinations in Complex Spheroids A high-throughput screen of multi-cell type tumor spheroids was designed to identify active combinations of RAS pathway inhibitors and targeted small molecules. Complex spheroids include a stromal component modeled by human endothelial cells (HUVEC) and fibroblasts modeled by human mesenchymal stem cells (MSCs). […] Compounds. […] If the clinical Cmax for an agent had not been determined, the highest concentration tested was 10 microM. […]
pIC50: −log10 of the molar value.
pIC50 reference

1) CC(Nc1ccc2c(c1)OCCn1cc(N3C(=O)OCC3C(F)F)nc1-2)C(N)=O (centres undefined) + CCn1c(-c2cc(N3CCN(C)CC3)cnc2C(C)OC)c2c3cc(ccc31)-c1csc(n1)CC(NC(=O)C1CC1C)C(=O)N1CCCC(N1)C(=O)OCC(C)(C)C2: > 7.50

Problem: Any idea what its pIC50 is? The compound is CC1(O)CCCC1n1c(=O)c(C(F)F)cc2cnc(NC3CCN(S(C)(=O)=O)CC3)nc21 (centres undefined) + CCn1c(-c2cccnc2C(C)OC)c2c3cc(ccc31)N1CCOC(CC(NC(=O)C(C(C)C)N(C)C(=O)C3(F)CCN(C(=O)C#CC(C)(C)N(C)C)CC3)C(=O)N3CCCC(N3)C(=O)OCC(C)(C)C2)C1
Result: > 7.50

Problem: Any idea what its pIC50 is? The compound is Nc1ccn(C2OC(CO)C(O)C2(F)F)c(=O)n1 (centres undefined) + CCn1c(-c2cc(N3CCN(C)CC3)cnc2C(C)OC)c2c3cc(ccc31)-c1csc(n1)CC(NC(=O)C1CC1C)C(=O)N1CCCC(N1)C(=O)OCC(C)(C)C2
Result: > 8.50

Problem: Any idea what its pIC50 is? The compound is CC(C)n1nc(-c2ccc3oc(N)nc3c2)c2c(N)ncnc21 + CCn1c(-c2cccnc2C(C)OC)c2c3cc(ccc31)N1CCOC(CC(NC(=O)C(C(C)C)N(C)C(=O)C3(F)CCN(C(=O)C#CC(C)(C)N(C)C)CC3)C(=O)N3CCCC(N3)C(=O)OCC(C)(C)C2)C1
Result: > 9.50

* * *

viability, T/C reference
Tested on: 941728-121-R-J1-PDC complex spheroid viability
Assay Remarks: Anticancer human tumor 941728-121-R-J1-PDC cell line growth inhibition [RAS];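 further: spheroids exposed to compounds for 7 days before readout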;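 on viability, T/C: 100% = DMSO vehicle control viability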
Protocol Conditions: second compound 0.003 µM; first compound 0.03 µM; stronger effect = lower value

1. CC1(C)CCC(Nc2ncc(C(F)(F)F)c(-c3c[nH]c4c(P(C)(C)=O)c(C#N)ccc34)n2)CN1 (centres undefined) + CCn1c(-c2cccnc2C(C)OC)c2c3cc(ccc31)N1CCOC(CC(NC(=O)C(C(C)C)N(C)C(=O)C3(F)CCN(C(=O)C#CC(C)(C)N(C)C)CC3)C(=O)N3CCCC(N3)C(=O)OCC(C)(C)C2)C1: 22.9%
2. CC1(C)CCC(Nc2ncc(C(F)(F)F)c(-c3c[nH]c4c(P(C)(C)=O)c(C#N)ccc34)n2)CN1 (centres undefined) + CCn1c(-c2cc(N3CCN(C)CC3)cnc2C(C)OC)c2c3cc(ccc31)-c1csc(n1)CC(NC(=O)C1CC1C)C(=O)N1CCCC(N1)C(=O)OCC(C)(C)C2: 22.6%
3. CCc1c2c(nc3ccc(O)cc13)-c1cc3c(c(=O)n1C2)COC(=O)[C@]3(O)CC + CCn1c(-c2cc(N3CCN(C)CC3)cnc2C(C)OC)c2c3cc(ccc31)-c1csc(n1)CC(NC(=O)C1CC1C)C(=O)N1CCCC(N1)C(=O)OCC(C)(C)C2: 13.4%

Now examine the next entry.
Problem: Identify the measured viability, T/C of CCc1c2c(nc3ccc(O)cc13)-c1cc3c(c(=O)n1C2)COC(=O)[C@]3(O)CC + CCn1c(-c2cccnc2C(C)OC)c2c3cc(ccc31)N1CCOC(CC(NC(=O)C(C(C)C)N(C)C(=O)C3(F)CCN(C(=O)C#CC(C)(C)N(C)C)CC3)C(=O)N3CCCC(N3)C(=O)OCC(C)(C)C2)C1 for 941728-121-R-J1-PDC complex spheroid viability.
Result: 14.4%

* * *

System: 941728-121-R-J1-PDC complex spheroid viability
Assay Remarks: Anticancer human tumor 941728-121-R-J1-PDC cell line growth inhibition [RAS];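 further: spheroids exposed to compounds for 7 days before readout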
Protocol Conditions: curve of first compound; second compound 0.00949 µM
IC50 reference

These recorded examples may help you get a feel for the data.
1) O=C(c1ccc(F)c(F)c1Nc1ccc(I)cc1F)N1CC(O)([C@@H]2CCCCN2)C1 + CCn1c(-c2cccnc2C(C)OC)c2c3cc(ccc31)N1CCOC(CC(NC(=O)C(C(C)C)N(C)C(=O)C3(F)CCN(C(=O)C#CC(C)(C)N(C)C)CC3)C(=O)N3CCCC(N3)C(=O)OCC(C)(C)C2)C1: < 3.16 nM
2) O=C(c1ccc(F)c(F)c1Nc1ccc(I)cc1F)N1CC(O)([C@@H]2CCCCN2)C1 + CCn1c(-c2cc(N3CCN(C)CC3)cnc2C(C)OC)c2c3cc(ccc31)-c1csc(n1)CC(NC(=O)C1CC1C)C(=O)N1CCCC(N1)C(=O)OCC(C)(C)C2: < 3.16 nM
3) CCc1c2c(nc3ccc(O)cc13)-c1cc3c(c(=O)n1C2)COC(=O)[C@]3(O)CC + CCn1c(-c2cccnc2C(C)OC)c2c3cc(ccc31)N1CCOC(CC(NC(=O)C(C(C)C)N(C)C(=O)C3(F)CCN(C(=O)C#CC(C)(C)N(C)C)CC3)C(=O)N3CCCC(N3)C(=O)OCC(C)(C)C2)C1: < 0.949 nM
4) CC(C)NCC(C(=O)N1CCN(c2ncnc3c2C(C)CC3O)CC1)c1ccc(Cl)cc1 (stereo not drawn) + CCn1c(-c2cc(N3CCN(C)CC3)cnc2C(C)OC)c2c3cc(ccc31)-c1csc(n1)CC(NC(=O)C1CC1C)C(=O)N1CCCC(N1)C(=O)OCC(C)(C)C2: < 31.6 nM
5) CC(C)n1nc(-c2ccc3oc(N)nc3c2)c2c(N)ncnc21 + CCn1c(-c2cc(N3CCN(C)CC3)cnc2C(C)OC)c2c3cc(ccc31)-c1csc(n1)CC(NC(=O)C1CC1C)C(=O)N1CCCC(N1)C(=O)OCC(C)(C)C2: < 0.316 nM
6) CC(C)NCC(C(=O)N1CCN(c2ncnc3c2C(C)CC3O)CC1)c1ccc(Cl)cc1 (stereo not drawn) + CCn1c(-c2cccnc2C(C)OC)c2c3cc(ccc31)N1CCOC(CC(NC(=O)C(C(C)C)N(C)C(=O)C3(F)CCN(C(=O)C#CC(C)(C)N(C)C)CC3)C(=O)N3CCCC(N3)C(=O)OCC(C)(C)C2)C1: < 31.6 nM

Problem: Identify the measured IC50 of C=CC(=O)N1CCN(c2nc(OCC3CCCN3C)nc3c(F)c(-c4nc(N)cc(C)c4C(F)(F)F)c(Cl)cc23)C(C)C1 (stereo not drawn) + CCn1c(-c2cc(N3CCN(C)CC3)cnc2C(C)OC)c2c3cc(ccc31)-c1csc(n1)CC(NC(=O)C1CC1C)C(=O)N1CCCC(N1)C(=O)OCC(C)(C)C2 for 941728-121-R-J1-PDC complex spheroid viability.
Result: < 3.16 nM

Problem: Identify the measured IC50 of CC1(C)CCC(Nc2ncc(C(F)(F)F)c(-c3c[nH]c4c(P(C)(C)=O)c(C#N)ccc34)n2)CN1 (stereo not drawn) + CCn1c(-c2cccnc2C(C)OC)c2c3cc(ccc31)N1CCOC(CC(NC(=O)C(C(C)C)N(C)C(=O)C3(F)CCN(C(=O)C#CC(C)(C)N(C)C)CC3)C(=O)N3CCCC(N3)C(=O)OCC(C)(C)C2)C1 for 941728-121-R-J1-PDC complex spheroid viability.
Result: < 0.949 nM
